Tested on: LX-2
Assay: MTS cytotoxicity assay, LX-2
Type: cell-based
Details: Homo sapiens, LX-2, 72 h
Description: Cultivation of the cancer cell lines MCF-7, Hep3B, HepG2, and Caco-2 HeLa was conducted in RPMI 1640 medium, whereas LX-2, B16-F1, and HEK-293T cells were grown in DMEM medium. These cells were incubated at 37 °C in a 5% CO2 atmosphere within a humid setting. In a 96-well plate, 1000 cells were seeded in each well. […] The absorbance was subsequently assessed at a wavelength of 490 nm using a UV–Vis spectrophotometer.
observation type: IC50 (µM)

COc1ccc(OC)c(NC(=O)Cc2ccc3c(c2)OCO3)c1 [Ic]    209
O=C(Cc1ccc2c(c1)OCO2)Nc1ccccc1 [Ib]    281
COc1cc(NC(=O)c2ccc3c(c2)OCO3)cc(OC)c1OC [IIb]    96.6
COc1ccccc1Oc1ccc(NC(=O)c2ccc3c(c2)OCO3)cc1 [IId]    31.4
COc1cc(NC(=O)c2ccc3c(c2)OCO3)cc(OC)c1 [IIe]    183
COc1cc(NC(=O)Cc2ccc3c(c2)OCO3)c(OC)cc1Cl [Ia]    70.6
